Biological target: Circumsporozoite protein (CSP) (Plasmodium falciparum (isolate 3D7), UniProt Q7K740)
Sequence (Q7K740 19-374): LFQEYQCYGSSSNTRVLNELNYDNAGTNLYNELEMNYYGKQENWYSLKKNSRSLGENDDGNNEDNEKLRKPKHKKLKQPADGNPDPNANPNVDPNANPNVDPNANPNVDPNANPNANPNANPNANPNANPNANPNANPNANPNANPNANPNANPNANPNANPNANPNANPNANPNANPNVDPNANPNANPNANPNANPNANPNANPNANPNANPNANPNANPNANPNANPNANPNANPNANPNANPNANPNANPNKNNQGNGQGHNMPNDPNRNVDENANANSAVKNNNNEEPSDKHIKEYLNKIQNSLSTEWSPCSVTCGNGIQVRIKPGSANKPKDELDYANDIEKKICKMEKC
Assay: AVEXIS screen signal:noise (double-corrected)
endpoint: binding score

binder | binding score
ADP353 (protein, bait human Fc-tagged dimer) MAARWRFWCVSVTMVVALLIVCDVPSASAQRKKEMVLSEKVSQLMEWTNKRPVIRMNGDKFRRLVKAPPRNYSVIVMFTALQLHRQCVVCKQADEEFQILANSWRYSSAFTNRIFFAMVDFDEGSDVFQMLNMNSAPTFINFPAKGKPKRGDTYELQVRGFSAEQIARWIADRTDVNIRVIRPP | 1.49

Any idea what its binding score is? The binder is ADP304 (protein, bait human Fc-tagged dimer) MASGWWLWPLVAVCTADFFRDEAERIMRDSPVIDGHNDLPWQLLDMFNNRLQDERANLTTLAGTHTNIPKLRAGFVGGQFWSVYTPCDTQNKDAVRRTLEQMDVVHRMCRMYPETFLYVTSSAGIRQAFREGKVASLIGVEGGHSIDSSLGVLRALYQLGMRYLTLTHSCNTPWADNWLVDTGDSEPQSQGLSPFGQRVVKELNRLGVLIDLAHVSVATMKATLQLSRAPVIFSHSSAYSVCASRRNVPDDVLRLVKQTDSLVMVNFYNNYISCTNKANLSQVADHLDHIKEVAGARAVGFGGDFDGVPRVPEGLEDVSKYPDLIAELLRRNWTEAEVKGALADNLLRVFEAVEQASNLTQAPEEEPIPLDQLGGSCRTHYGYSS 0.718
